Measurement Type: melting point

Record Smiles | Reported Result
CC(C)(C)C(=O)Nc1ccc2oc3c(c2c1)CCCCC3 | 208 to 209 °C
CC(C)CC(=O)Nc1ccc2oc3c(c2c1)CCCC3 | 154 to 157 °C
CC(C)C(=O)Nc1ccc2oc3c(c2c1)CCCC3 | 206.5 to 208 °C
CC(C)(C)C(=O)Nc1ccc2oc3c(c2c1)CCC3 | 188.5 to 190 °C
CC(C)(C)CC(=O)Nc1ccc2oc3c(c2c1)CCCCC3 | 182 to 183 °C
CC(C)CC(=O)Nc1ccc2oc3c(c2c1)CCCCC3 | 162 to 163 °C
CC(C)(C)C(=O)Nc1ccc2oc3c(c2c1)CCCC3 | 210 to 211 °C
O=C(CC1CCCCC1)Nc1ccc2oc3c(c2c1)CCCC3 | 189 to 191 °C
CCN(CC)C(=O)Nc1ccc2oc3c(c2c1)CCCC3 | 179 to 180 °C
COc1ccc(C(=O)Nc2ccc3oc4c(c3c2)CCCC4)cc1 | 197 to 197.5 °C
O=C(Nc1ccc2oc3c(c2c1)CCCC3)c1ccccc1 | 178 to 180 °C
CC(C)CC(=O)Nc1ccc2oc3c(c2c1)CCC3 | 162 to 163 °C
CC(C)(C)c1ccc(C(=O)Nc2ccc3oc4c(c3c2)CCCC4)cc1 | 185 to 186 °C
O=C(Nc1ccc2oc3c(c2c1)CCCC3)c1ccc([N+](=O)[O-])cc1 | 279 to 280 °C
CC(C)(C)CC(=O)Nc1ccc2oc3c(c2c1)CCCCCC3 | 157 to 158 °C
CC(C)(C)NC(=O)Nc1ccc2oc3c(c2c1)CCCC3 | 310 to 312 °C (dec.)
CCC(=O)Nc1ccc2oc3c(c2c1)CCCC3 | 164 to 165 °C
CC(C)(C)CC(=O)Nc1ccc2oc3c(c2c1)CCC3 | 195.5 to 197 °C
CC(C)CC(=O)Nc1ccc2oc3c(c2c1)CCCCCC3 | 154 to 155 °C
O=C(Cc1ccccc1)Nc1ccc2oc3c(c2c1)CCCC3 | 180 to 181 °C
CC(C)CCC(=O)Nc1ccc2oc3c(c2c1)CCCC3 | 145.5 to 146 °C
CC(C)(C)CC(=O)Nc1ccc2oc3c(c2c1)CCCC3 | 164 to 165 °C
Cc1ccccc1C(=O)Nc1ccc2oc3c(c2c1)CCCC3 | 209 to 210 °C
Nc1ccc(C(=O)Nc2ccc3oc4c(c3c2)CCCC4)cc1 | 207 to 208 °C
O=C(Nc1ccc2oc3c(c2c1)CCCC3)C12CC3CC(CC(C3)C1)C2 | 247 to 248 °C
CC(C)(C)C(=O)Nc1ccc2oc3c(c2c1)CCCCCC3 | 189 to 190 °C
O=C(CC1CCCCC1)Nc1ccc2oc3c(c2c1)CCCCC3 | 188 to 189 °C
CC(=O)Nc1ccc2oc3c(c2c1)CCCC3 | 195.5 to 197.5 °C
O=C(CC1CCCCC1)Nc1ccc2oc3c(c2c1)CCCCCC3 | 180 to 181 °C

* * *

- Test system: isolated rat bladder strips
- Experiment Summary: Inhibition of contractions of isolated rat bladder strips
- Experimental Parameters: maximum percentage inhibition of contractile activity, 30 μM, strips stimulated with additional 15 mM KCl, read-out: % Inhibition of Contractility @ 30 μM

Molecule | inhibition at 30 µM
O=C(CO)Nc1ccc2oc3c(c2c1)CCCCCC3 [Example 80] | 30 to 50%
C[C@H](NC(=O)[C@H](Cc1ccccc1)NC(=O)OCc1ccccc1)C(=O)Nc1ccc2oc3c(c2c1)CCCCC3 [Example 58] | 30 to 40%
O=C(CCc1ccccc1)Nc1ccc2oc3c(c2c1)CCCC3 [Example 21] | 10 to 30%
CC(C)(C)OC(=O)N[C@@H](Cc1ccccc1)C(=O)Nc1ccc2oc3c(c2c1)CCCCC3 [Example 53] | 15 to 25%
O=C(Nc1ccc2oc3c(c2c1)CCCC3)c1ccc(F)cc1 [Example 19] | 25 to 35%
O=C(Cc1ccc(F)cc1)Nc1ccc2oc3c(c2c1)CCCCC3 [Example 30] | 30 to 50%
O=C(Nc1ccc2oc3c(c2c1)CCCC3)c1ccccc1 [Example 18] | 40 to 50%
CN(C)C(=O)Nc1ccc2oc3c(c2c1)CCCCCC3 [Example 87] | 25 to 35%
CC(C)(C)c1ccc(C(=O)Nc2ccc3oc4c(c3c2)CCCC4)cc1 [Example 6] | 10 to 20%
CC(C)(C)c1ccc(C(=O)Nc2ccc3oc4c(c3c2)CCCCCC4)cc1 [Example 68] | 20 to 40%
Nc1ccc(C(=O)Nc2ccc3oc4c(c3c2)CCCC4)cc1 [Example 16] | 5 to 10%
CC(C)OC(=O)Nc1ccc2oc3c(c2c1)CCCCCC3 [Example 88] | 20 to 30%
O=C(Nc1ccc2oc3c(c2c1)CCCC3)c1ccc([N+](=O)[O-])cc1 [Example 15] | 10 to 20%
CC(C)(C)OC(=O)NCC(=O)Nc1ccc2oc3c(c2c1)CCCCC3 [Example 51] | 25 to 40%
O=C(Nc1ccc2oc3c(c2c1)CCCCC3)c1ccc(C(F)(F)F)cc1 [Example 38] | 5 to 10%
CC(CC(=O)Nc1ccc2oc3c(c2c1)CCCCCC3)CC(C)(C)C (stereo not shown) [Example 66] | 5 to 20%
CC(=O)Nc1ccc2oc3c(c2c1)CCCC3 [Example 11] | 20 to 30%
Cc1cccc(C(=O)Nc2ccc3oc4c(c3c2)CCCCCC4)c1 [Example 69] | 10 to 20%
CCOC(=O)Nc1ccc2oc3c(c2c1)CCCCC3 [Example 85] | 40 to 60%
O=C(Nc1ccc2oc3c(c2c1)CCCC3)c1ccc(Cl)cc1 [Example 17] | 25 to 30%
O=C(Nc1ccc2oc3c(c2c1)CCCCC3)[C@@H]1CCCN1 [Example 57] | 20 to 30%
O=C(Nc1ccc2oc3c(c2c1)CCCC3)c1ccc(C(F)(F)F)cc1 [Example 20] | 15 to 40%
COc1ccc(C(=O)Nc2ccc3oc4c(c3c2)CCCC4)cc1 [Example 13] | 15 to 25%
O=C(Nc1ccc2oc3c(c2c1)CCCC3)C12CC3CC(CC(C3)C1)C2 [Example 5] | 10 to 30%
O=C(Nc1ccc2oc3c(c2c1)CCCCCC3)c1ccncc1 [Example 77] | 30 to 50%
Cc1ccccc1C(=O)Nc1ccc2oc3c(c2c1)CCCC3 [Example 12] | 20 to 30%
C[C@H](NC(=O)OCc1ccccc1)C(=O)Nc1ccc2oc3c(c2c1)CCCCC3 [Example 49] | 30 to 40%
O=C(CCC1CCCC1)Nc1ccc2oc3c(c2c1)CCCCCC3 [Example 70] | 15 to 30%

Origin of measurements: patent US7601856B2
